Recorded measurements of growth, one per entry
Test system: HCC-2998 colon
Protocol: NCI-60 one-dose screen, 48 h (100 = growth as untreated, 0 = no growth, -100 = all killed)
Protocol conditions: 10 µM unless noted
The panel holds about 83,000 compounds, 20% with a hit somewhere; the sample as a whole holds those more often.
Property: growth (%)

> print(dat)
                                    molecule  measure.unit  value
 1  C=C1C(=O)O[C@H]2[C@H]1CC/C(COC(=O)N[C@H](Cc1c[nH]c3ccccc13)C(=O)OC)=C\CC[C@@]1(C)O[C@@H]21             %    101
 2  CC(=O)Oc1ccccc1C(=O)/C=C/c1cccc([N+](=O)[O-])c1             %    101
 3  Cn1c(=O)c2c(nc(Br)n2CC(=O)Nc2ccc(F)cc2)n(C)c1=O             %    114
 4  C=C(C)[C@@H]1CC[C@]2(C)CC[C@]3(C)[C@H](CC[C@@H]4[C@@]5(C)CCCNC(C)(C)[C@@H]5CC[C@]43C)[C@@H]12             %     66
 5  C=C1C(=O)O[C@H]2[C@H]1CC/C(COC(=O)NCCc1c[nH]c3ccccc13)=C\CC[C@@]1(C)O[C@@H]21             %   94.7
 6  CC(=O)N1N=C(c2ccc(C)cc2)CC1c1ccc(Oc2ccc(Br)cc2)cc1 (centres undefined)             %   96.9
 7  CCc1cccc(CC)c1NC(=O)c1sc2nc3c(cc2c1N)CCCC3             %   95.4
 8  O=C1c2cccc3cccc(c23)C(=O)N1CC#Cc1ccc2c3c(cccc13)C(=O)N(CCO)C2=O             %    106
 9  COC(=O)[C@]12CC[C@@H](C)[C@H](C)[C@@H]1C1=CC[C@@H]3[C@@]4(C)C[C@@H](O)[C@H](O)[C@@](C)(CO)C4=CC[C@@]3(C)[C@]1(C)CC2             %  -86.5
10  CC1(C)c2ccccc2C(=O)C1(Br)Cc1ccccc1 (centres undefined)             %   78.4
11  Nc1nc(Br)nc2c1ncn2C1CC(O)C(CO)O1 (centres undefined)             %   58.9
12  CN1CCN(c2nc(-c3cccc4ccccc34)nc3sc4c(c23)CCCCCC4)CC1             %   95.8
13  C#CCN=C[C@]12CC[C@@H](C(=C)C)[C@@H]1[C@H]1CC[C@@H]3[C@@]4(C)CCC(=O)C(C)(C)[C@@H]4CC[C@@]3(C)[C@]1(C)CC2             %   78.1
14  N=c1c(S(=O)(=O)c2ccccc2)cc2c(=O)n3ccccc3nc2n1C1CCCC1             %    103
15  N#Cc1c(-c2ccc(O)cc2)c2c(N)nn(-c3ccccc3)c2[nH]c1=O             %    110
16  Cc1cc(N(CCCNc2ccnc3cc(Cl)ccc23)Cc2ccco2)nc(N2CCN(C)CC2)n1             %   86.9
17  Nc1c(C(=O)Nc2c(Cl)cccc2Cl)sc2nc3c(cc12)CCCC3             %   92.5
18  O=C1/C(=C\c2ccc(Br)o2)SC(=S)N1CCc1ccc(O)cc1             %    119
19  NC1=C(C/C(N)=N\O)C(c2ccccc2Cl)c2c(ccc3ccccc23)O1 (centres undefined)             %   97.1

* * *

Test system: SNB-19 CNS
Protocol: NCI-60 one-dose screen, 48 h (100 = growth as untreated, 0 = no growth, -100 = all killed)
Protocol conditions: 10 µM unless noted
Protocol: Growth inhibition of the SNB-19 human tumor cell line is measured as a screen for anti-cancer activity. Cells are grown in 96 well plates and exposed to the test compound for 48 hours. Compounds are tested at a single concentration, which is 10^-5 M for most compounds. The reported endpoint is percent growth (GI% or GIPRCNT), where numbers from 0 - 100% represent growth inhibition, and numbers from -100% - 0 represent cell death. For example, a value of 40 represents 60% growth inhibition. […]
About 83,000 compounds went through this panel and 20% of them were active in at least one assay; those are over-represented in the sample as a whole.

Molecule	Measure unit	growth
Fc1ccc(Nc2nnc(-c3ccc(Cl)cc3)o2)cc1	%	101
Cc1c(C)c2c(c(C)c1NC(=O)CCCCCCC(=O)O)CCC(C)(CCCC(C)CCCC(C)CCCC(C)C)O2 (centres undefined)	%	101
COc1cccc(-c2nn(-c3ccccc3)cc2-c2ccnc(NCCNS(=O)(=O)c3ccc(C(F)(F)F)cc3)c2)c1	%	21.8
Cc1cc(N2CCOCC2)nc(N(CCCNc2ccnc3cc(Cl)ccc23)Cc2ccco2)n1	%	20.4
Cc1ccc(Cc2cnc(NC(=O)/C=C/c3cccc(C)c3)s2)cc1	%	13.4
O=P(O)(c1ccccc1)c1ccccc1I	%	103
C[N+](C)(CCCCCC[N+](C)(C)C1c2ccccc2-c2ccccc21)C1c2ccccc2-c2ccccc21	%	105
COc1ccc2c(c1)c1nc3cc(C)c(C)cc3nc1n2CCN(C)C	%	13.6
c1cc(N2CCCC2)c2nc(-c3[nH]ncc3Nc3ncnc4[nH]ccc34)[nH]c2c1	%	-13.1
COc1cnc2c(c1)C(=O)c1c-2n(CCCNC(C)C)c(=O)c2cc([N+](=O)[O-])ccc12	%	-44.7
Cc1ccc(-c2nc([P+](c3ccccc3)(c3ccccc3)c3ccccc3)c(N3CCOCC3)o2)cc1	%	11.5
C=C(C)[C@@H]1CC[C@]2(CN)CC[C@]3(C)[C@H](CC[C@@H]4[C@@](C)(CCCN)[C@H](C(=C)C)CC[C@]43C)[C@@H]12	%	89.5
COc1ccc2[nH]c(-c3ccc(Cl)cc3)cc(=O)c2c1	%	96
O=C1c2ccccc2NC(c2cn(-c3ccccc3)nc2-c2cccs2)N1Cc1ccccc1 (centres undefined)	%	95.4
COc1ccc(-c2n/c(=C\c3c(O)[nH]c4ccc(OC)cc34)cc3c2=Nc2ccccc2-3)cc1	%	38.4
COC(=O)[C@]12CC[C@@H](C)[C@H](C)[C@@H]1C1=CC[C@@H]3[C@@]4(C)C[C@@H](O)OC[C@](C)(C=O)C4C(=O)C[C@@]3(C)[C@]1(C)CC2 (some centres undefined)	%	27.1
NC(=O)[C@@H]1CC2CCC1C2 (some centres undefined)	%	111
COC(=O)CNc1nc(N(C)O)nc(N(C)O)n1	%	47.6
O=C1C(=O)c2ccccc2C(O)=C1CCCc1ccc(C2CCCCC2)cc1	%	39.9

* * *

System: OVCAR-4 ovarian
Protocol: NCI-60 one-dose screen, 48 h (100 = growth as untreated, 0 = no growth, -100 = all killed)
Protocol conditions: 10 µM unless noted
Procedure: Growth inhibition of the OVCAR-4 human tumor cell line is measured as a screen for anti-cancer activity. Cells are grown in 96 well plates and exposed to the test compound for 48 hours. Compounds are tested at a single concentration, which is 10^-5 M for most compounds. The reported endpoint is percent growth (GI% or GIPRCNT), where numbers from 0 - 100% represent growth inhibition, and numbers from -100% - 0 represent cell death. For example, a value of 40 represents 60% growth inhibition. […]
The panel holds about 83,000 compounds, 20% with a hit somewhere; the sample as a whole holds those more often.
Tick T if growth is 50% or greater. Tick F if growth is less than 50%.

Compound	Category label
COc1cc2c(cc1-c1c(C)noc1C)ncc1nc(C3CCC(F)(F)CC3)n([C@@H](C)COC(F)F)c12	F
C=C1C(=O)O[C@H]2[C@H]1CC/C(Cn1cc(-c3ccc(F)cc3)nn1)=C\CC[C@@]1(C)O[C@@H]21	F
CN(C)c1ccc(-c2ccc(-c3ccc(C(=N)N)c(F)c3)s2)cc1	F
OCC12CCCC(CO)(COC1)C2O (stereo not drawn)	T
O=C(O)/C(=C/c1ccc(O)cc1)c1ccccc1	T
CCCCCCCC(=O)SCC/C=C/[C@@H]1CC(=O)NCc2cccc(n2)CN(Cc2ccc3ccccc3c2)CC(=O)N[C@@H](C(C)C)C(=O)O1	T
Nc1ccccc1NC(=O)c1ccc(CN2CCC/C(=C\c3ccccn3)C2=O)cc1	F
C=C(C)[C@@H]1CC[C@]2(C(=O)N3CCN(CC)CC3)CC[C@]3(C)[C@H](CC[C@@H]4[C@@](C)(CCC(=O)N5CCN(CC)CC5)[C@H](C(=C)C)CC[C@]43C)[C@@H]12	T

* * *

System: SF-295 CNS
Protocol: NCI-60 one-dose screen, 48 h
Protocol conditions: 10 µM unless noted
About 83,000 compounds went through this panel and 20% of them were active in at least one assay; those are over-represented in the sample as a whole. Calls of active or inactive are those of the source. The calls were made as follows: active = growth percent below 10; inactive = the rest.
Labels: active, inactive

> print(dat)
                                   compound  category.label
1  CCOc1ccc(NC(=O)c2ccccc2-c2ccccc2C(=O)O)cc1        inactive
2  CN1CCN(c2ccc3nc(-c4[nH]ncc4Nc4ncnc5c4OCCCN5)[nH]c3c2)CC1          active
3  COc1ccc(-c2nc(SCC(=O)Nc3ccc(C(C)=O)cc3)[nH]c(=O)c2C#N)cc1        inactive
4  CC(c1ccccc1)N1C(=O)C(C2SC(=S)N(C(C)c3ccccc3)C2=O)SC1=S (centres undefined)        inactive
5  O=c1[nH]c2c3ccncc3cc(-c3cccc(Cl)c3)c2c2cnccc12        inactive
6   NC1=NN(c2ccccc2)C(=O)/C1=C/c1ccc(Cl)cc1        inactive
7  COc1ccc(/C=C(\C#N)c2cc3ccccc3n2S(C)(=O)=O)cc1        inactive
8  Cn1cc(-c2csc(-c3cn(CCN)c4ccc(F)cc34)n2)c2cccnc21        inactive
9  C=C(C)[C@@H]1CC[C@]2(c3nnc(-c4ccncc4)o3)CC[C@]3(C)[C@H](CC[C@@H]4[C@@]5(C)CCC(=O)NC(C)(C)[C@@H]5CC[C@]43C)[C@@H]12        inactive
